Taken from ChEMBL document CHEMBL4316637.

- System: Plasmodium falciparum
- Procedure Text: Antimalarial activity against Plasmodium falciparum K1 infected in human type A+ erythrocytes incubated for 24 hrs followed by [G-3H]-hypoxanthine incorporation and measured after 18 hrs by liquid scintillation counting method
- Type: functional, organism-based
pIC50: −log10 of the molar value.
# pIC50 per entry

Known pIC50 results, listed for orientation:
Compound Structure	Measured Target	pIC50
COC(=O)CC[C@]1(COC(C)=O)C2=CC[C@]3(C)[C@@H]([C@H](C)[C@@H]4CC=C(C)C(=O)O4)CC[C@@]3(C)C2=CC[C@H]1C(C)(C)O	Plasmodium falciparum	5.09
CC(=O)OC[C@]12CC[C@H](O)C(C)(C)[C@@H]1CCC1=C2CC[C@]2(C)[C@@H]([C@H](C)[C@@H]3CC=C(C)C(=O)O3)CC[C@@]12C	Plasmodium falciparum	< 4.70

Record request: pIC50 value, item CC(=O)O[C@@H]1C[C@H]([C@H](C)[C@H]2OC(=O)C(C)=C[C@@H]2O)[C@@]2(C)C[C@H](O)C3=C(CC[C@@H]4C(=C3)C=CC(=O)OC4(C)C)[C@]12C < 4.74

###

Measured pIC50 values are reported for all entries that follow.
- System: Plasmodium falciparum
- Procedure Text: Antimalarial activity against Plasmodium falciparum K1 infected in human type A+ erythrocytes incubated for 24 hrs followed by [G-3H]-hypoxanthine incorporation and measured after 18 hrs by liquid scintillation counting method
- Assay type: functional, organism-based
pIC50: −log10 of the molar value.

Consider the following illustrative entries.
Compound Structure	pIC50
CC(=O)O[C@]12CCC(=O)OC(C)(C)[C@@H]1CCC1=C2CC[C@]2(C)[C@@H]([C@H](C)[C@@H]3CC=C(C)C(=O)O3)CC[C@@]12C	< 4.72
CC(=O)O[C@@H]1C[C@H]([C@H](C)[C@@H]2CC=C(C)C(=O)O2)[C@@]2(C)CCC3=C(CC[C@]4(C(C)(C)O)OC(=O)C=CC4=C3)[C@]12C	< 4.72
CC1=CC[C@@H]([C@@H](C)[C@H]2CC[C@@]3(C)C4=C(CC[C@]23C)[C@@]2(C)[C@H](O)C[C@H](O)C(C)(C)[C@@H]2CC4)OC1=O	< 4.68

Under Plasmodium falciparum: pIC50 value of CC(=O)O[C@]12CCC(=O)OC(C)(C)[C@@H]1CC=C1[C@]3(C)CC[C@H]([C@H](C)[C@@H]4CC=C(C)C(=O)O4)[C@@]3(C)C[C@H]3O[C@@]132 ? < 4.74

Which pIC50 is reported with Plasmodium falciparum for this entry: COC(=O)CC[C@]1(COC(C)=O)C2=CC[C@]3(C)[C@@H]([C@H](C)[C@H]4OC(=O)C(C)=C[C@@H]4O)CC[C@@]3(C)C2=CC[C@H]1C(C)(C)O ? 5.20

###

- Test system: Plasmodium falciparum
- Procedure Text: Antimalarial activity against Plasmodium falciparum K1 infected in human type A+ erythrocytes incubated for 24 hrs followed by [G-3H]-hypoxanthine incorporation and measured after 18 hrs by liquid scintillation counting method
- Assay type: functional, organism-based
Below is a list of entries, each paired with its recorded pIC50 value.
Value format note: pIC50 is -log10 of concentration (mol/L); just state the number.

Example results:
Compound Structure	Test Value
CC(=O)O[C@@H]1C[C@H]([C@H](C)[C@H]2OC(=O)C(C)=C[C@@H]2O)[C@@]2(C)CCC3=C(CC[C@@H]4C(=C3)C=CC(=O)OC4(C)C)[C@]12C	5.15
CC(=O)OC[C@@]1(CCC(=O)O)C2=CC[C@]3(C)[C@@H]([C@H](C)[C@@H]4CC=C(C)C(=O)O4)CC[C@@]3(C)C2=CC[C@H]1C(C)(C)O	5.26

Tell me the measured pIC50 of CC(=O)OC[C@]12CC[C@H](O)C(C)(C)[C@@H]1CCC1=C2CC[C@]2(C)[C@@H]([C@H](C)[C@H]3OC(=O)C(C)=C[C@@H]3O)CC[C@@]12C , please. 5.18

###

This listing pairs molecules with measured IC50.
- System: Plasmodium falciparum
- Procedure Text: Antimalarial activity against Plasmodium falciparum K1 infected in human type A+ erythrocytes incubated for 24 hrs followed by [G-3H]-hypoxanthine incorporation and measured after 18 hrs by liquid scintillation counting method
- Format: functional, organism-based

Compound Structure	IC50
CC1=CC[C@@H]([C@@H](C)[C@H]2C[C@@H](O)[C@@]3(C)C4=C(C=C5C=CC(=O)OC(C)(C)[C@@H]5CC4)[C@@H](O)C[C@]23C)OC1=O	> 20 µM
CC1=CC[C@@H]([C@@H](C)[C@H]2CC[C@@]3(C)C4=C(CC[C@]23C)[C@@]2(CO)CC[C@H](O)C(C)(C)[C@@H]2CC4)OC1=O	> 21 µM
CC1=CC[C@@H]([C@@H](C)[C@H]2CC[C@@]3(C)C4=C(C=C5C=CC(=O)OC(C)(C)[C@@H]5CC4)CC[C@]23C)OC1=O	18 µM

Endpoint output: IC50 of CC1=CC[C@@H]([C@@H](C)[C@H]2CC[C@@]3(C)[C@@]45CC[C@@H](C(C)(C)O4)[C@]4(CCC(=O)OC4)C5=CC[C@]23C)OC1=O . Value? > 21 µM

Request the reported IC50 associated with CC(=O)[C@H]1C[C@@H](O)[C@@]2(C)C3=C(C=C4C=CC(=O)OC(C)(C)[C@@H]4CC3)CC[C@]12C > 26 µM

Give its IC50 value. Item: CC(=O)OC(C)(C)[C@@H]1CC=C2C(=CC[C@]3(C)[C@@H]([C@H](C)[C@H]4OC(=O)C(C)=C[C@@H]4O)CC[C@@]23C)[C@@]12CCC(=O)OC2 > 18 µM

###

- Test system: Plasmodium falciparum
- Procedure Text: Antimalarial activity against Plasmodium falciparum K1 infected in human type A+ erythrocytes incubated for 24 hrs followed by [G-3H]-hypoxanthine incorporation and measured after 18 hrs by liquid scintillation counting method
- Type: functional, organism-based
Each entry below carries its recorded IC50.
Give just the numeric value; µM need not be written.

Previously resolved entries follow.
Compound Structure	Measurement Unit	IC50
CC(=O)OC(C)(C)[C@@H]1CC=C2C(=CC[C@]3(C)[C@@H]([C@H](C)[C@@H]4CC=C(C)C(=O)O4)CC[C@@]23C)[C@@]12CCC(=O)OC2	µM	7.7
C[C@H]1[C@@H](O)O[C@@H]2O[C@@]3(C)CC[C@H]4[C@H](C)CC[C@@H]1[C@@]24OO3	µM	0.0028

// next entry
What value of IC50 has been reported for the following molecule? CC1=CC[C@@H]([C@@H](C)[C@H]2CC[C@@]3(C)C4=C(CC[C@]23C)C[C@@]2(O)C=CC(=O)OC(C)(C)[C@@H]2CC4)OC1=O 19

###

- Test system: Plasmodium falciparum
- Procedure Text: Antimalarial activity against Plasmodium falciparum K1 infected in human type A+ erythrocytes incubated for 24 hrs followed by [G-3H]-hypoxanthine incorporation and measured after 18 hrs by liquid scintillation counting method
- Format: functional, organism-based
Endpoint: pIC50
Convention used: pIC50 is expressed as -log10 of the molar concentration.

Examples with their reported pIC50 follow.
Compound Structure	Test Value
CC(=O)O[C@@H]1C[C@H]([C@H](C)[C@@H]2CC=C(C)C(=O)O2)[C@@]2(C)CC(=O)C3=C(CC[C@@H]4C(=C3)C=CC(=O)OC4(C)C)[C@]12C	5.00
CC1=CC[C@@H]([C@@H](C)[C@H]2C[C@@H](O)[C@@]3(C)C4=C(C=C5C=CC(=O)OC(C)(C)[C@@H]5CC4)CC[C@]23C)OC1=O	4.92

Turning to the following compound.
Please state recorded pIC50 (tested on Plasmodium falciparum) of CC1=CC[C@@H]([C@@H](C)[C@H]2CC[C@@]3(C)C4=CC[C@H]5C(C)(C)OC[C@@]5(CCC(=O)O)C4=CC[C@]23C)OC1=O 5.29

###

- Test system: Plasmodium falciparum
- Procedure Text: Antimalarial activity against Plasmodium falciparum K1 infected in human type A+ erythrocytes incubated for 24 hrs followed by [G-3H]-hypoxanthine incorporation and measured after 18 hrs by liquid scintillation counting method
- Type: functional, organism-based
Items are presented alongside their recorded IC50.
Please give a number only; it is taken to be in µM.

Completed entries (count: 2):
Compound Structure	IC50 (µM)
CC(=O)O[C@@H]1C[C@H]([C@H](C)[C@@H]2CC=C(C)C(=O)O2)[C@@]2(C)CCC3=C(CC[C@@H]4C(=CCC(=O)OC4(C)C)C3)[C@]12C	12
CC(=O)O[C@@H]1C[C@H]([C@H](C)[C@@H]2CC=C(C)C(=O)O2)[C@@]2(C)CCC3=C(CC[C@@H]4C(=C3)C=CC(=O)OC4(C)C)[C@]12C	18

Look up IC50 for this compound: COC(=O)CC[C@]1(COC(C)=O)C2=C(CC[C@H]1C(C)(C)O)[C@]1(C)CC[C@H]([C@H](C)[C@@H]3CC=C(C)C(=O)O3)[C@@]1(C)CC2 15
